experiment: Pharmacokinetic study of baicalin in HepG2 cells (intracellular concentrations by UPLC-MS/MS); type: in vitro ADME, human; conditions: human, HepG2 cells, intracellular, HepG2 cells given 100 μM baicalin + H PEG400 (1%)
Reported metric: Cmax at 100 μM
Report field: quantity (unit follows the number).

O=C(O)[C@H]1O[C@@H](Oc2cc3oc(-c4ccccc4)cc(=O)c3c(O)c2O)[C@H](O)[C@@H](O)[C@@H]1O [BG, Baicalein-7-O-β-D-glucuronide] = 10800 ng/mL

Consider the record given below.
Request: Look up Cmax at 100 μM for this compound: O=c1cc(-c2ccccc2)oc2cc(O)c(O)c(O)c12
Response: 510 ng/mL

---

target: MRP2 (Homo sapiens, UniProt Q92887); construct: expressed in transfected cells; host or cells: MDCK II; assay: Transport of baicalin across MDCK II-MRP2 cell monolayer (transwell); format: in vitro ADME; conditions: pH 7.4, MDCK II-MRP2, 100 μM BG + 0.5% PEG400
Sequence (Q92887 whole entry): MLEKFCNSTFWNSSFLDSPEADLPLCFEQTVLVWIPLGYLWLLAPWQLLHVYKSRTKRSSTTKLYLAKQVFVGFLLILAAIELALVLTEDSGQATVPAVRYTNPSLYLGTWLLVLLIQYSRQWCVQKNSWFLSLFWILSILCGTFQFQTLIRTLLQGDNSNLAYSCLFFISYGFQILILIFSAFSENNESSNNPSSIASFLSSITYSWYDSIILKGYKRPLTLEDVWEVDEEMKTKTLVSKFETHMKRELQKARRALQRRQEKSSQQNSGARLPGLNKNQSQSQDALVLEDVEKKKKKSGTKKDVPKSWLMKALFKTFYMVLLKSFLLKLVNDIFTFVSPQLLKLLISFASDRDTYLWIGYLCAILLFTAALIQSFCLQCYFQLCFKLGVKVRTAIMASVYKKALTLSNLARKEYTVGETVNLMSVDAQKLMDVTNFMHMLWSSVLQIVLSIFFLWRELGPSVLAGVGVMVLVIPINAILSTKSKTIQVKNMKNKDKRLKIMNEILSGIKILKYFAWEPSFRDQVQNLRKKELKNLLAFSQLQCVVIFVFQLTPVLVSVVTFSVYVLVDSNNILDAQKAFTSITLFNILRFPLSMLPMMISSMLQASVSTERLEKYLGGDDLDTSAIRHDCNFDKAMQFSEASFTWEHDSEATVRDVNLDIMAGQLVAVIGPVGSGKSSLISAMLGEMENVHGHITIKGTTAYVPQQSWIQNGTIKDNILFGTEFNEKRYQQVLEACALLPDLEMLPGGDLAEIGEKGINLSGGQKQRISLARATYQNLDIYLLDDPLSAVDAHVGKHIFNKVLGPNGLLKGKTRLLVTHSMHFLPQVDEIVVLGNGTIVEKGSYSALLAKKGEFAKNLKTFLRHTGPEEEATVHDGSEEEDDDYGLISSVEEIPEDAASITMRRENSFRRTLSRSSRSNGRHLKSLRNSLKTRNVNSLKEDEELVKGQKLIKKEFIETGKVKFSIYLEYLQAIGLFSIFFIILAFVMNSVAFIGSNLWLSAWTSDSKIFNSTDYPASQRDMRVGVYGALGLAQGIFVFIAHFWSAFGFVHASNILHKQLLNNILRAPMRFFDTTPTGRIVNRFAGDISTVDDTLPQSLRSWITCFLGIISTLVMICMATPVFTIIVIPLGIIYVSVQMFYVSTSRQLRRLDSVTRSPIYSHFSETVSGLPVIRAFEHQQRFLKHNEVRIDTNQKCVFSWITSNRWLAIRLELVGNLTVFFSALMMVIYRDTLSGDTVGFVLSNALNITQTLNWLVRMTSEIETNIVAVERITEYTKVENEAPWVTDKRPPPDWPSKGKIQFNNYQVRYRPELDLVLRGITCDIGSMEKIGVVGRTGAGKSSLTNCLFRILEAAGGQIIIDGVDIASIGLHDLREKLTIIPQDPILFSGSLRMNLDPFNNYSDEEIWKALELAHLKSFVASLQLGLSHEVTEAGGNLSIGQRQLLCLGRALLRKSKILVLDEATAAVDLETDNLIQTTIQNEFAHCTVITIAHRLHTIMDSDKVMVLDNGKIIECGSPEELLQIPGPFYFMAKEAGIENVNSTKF
Reported metric: Papp B→A at 120 min, 100 μM (×10⁻⁶ cm/s)
One number for each entry, in ×10⁻⁶ cm/s.

Request: Look up Papp B→A at 120 min, 100 μM for this molecule: O=C(O)[C@H]1O[C@@H](Oc2cc3oc(-c4ccccc4)cc(=O)c3c(O)c2O)[C@H](O)[C@@H](O)[C@@H]1O [BG, Baicalein-7-O-β-D-glucuronide]
Response: 2.73

---

biological target: BCRP (Homo sapiens, UniProt Q9UNQ0); construct: expressed in transfected cells; host or cells: MDCK II; test: Transport of baicalin across MDCK II-BCRP cell monolayer (transwell); format: in vitro ADME; conditions: pH 7.4, MDCK II-BCRP, 100 μM BG + 0.5% PEG400
Sequence (Q9UNQ0 whole entry): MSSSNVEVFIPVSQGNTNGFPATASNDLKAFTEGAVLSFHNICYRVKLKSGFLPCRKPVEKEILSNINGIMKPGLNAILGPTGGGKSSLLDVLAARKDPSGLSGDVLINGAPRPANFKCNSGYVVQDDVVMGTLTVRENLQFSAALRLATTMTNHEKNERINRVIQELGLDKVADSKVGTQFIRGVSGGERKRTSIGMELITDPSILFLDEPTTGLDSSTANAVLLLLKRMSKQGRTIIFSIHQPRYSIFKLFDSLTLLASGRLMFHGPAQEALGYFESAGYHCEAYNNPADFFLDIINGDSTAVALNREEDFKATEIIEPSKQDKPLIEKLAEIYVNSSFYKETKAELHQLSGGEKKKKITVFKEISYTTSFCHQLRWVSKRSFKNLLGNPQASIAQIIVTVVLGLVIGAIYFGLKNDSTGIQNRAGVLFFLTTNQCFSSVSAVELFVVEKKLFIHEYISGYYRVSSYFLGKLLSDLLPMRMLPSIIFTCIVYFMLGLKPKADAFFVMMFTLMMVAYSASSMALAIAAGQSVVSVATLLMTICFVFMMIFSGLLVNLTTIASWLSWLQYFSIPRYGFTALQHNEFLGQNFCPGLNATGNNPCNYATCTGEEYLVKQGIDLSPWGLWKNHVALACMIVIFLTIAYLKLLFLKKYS
Reported metric: Papp B→A at 120 min, 100 μM (×10⁻⁶ cm/s)
Give bare numbers, in ×10⁻⁶ cm/s.

Request: GET /values?readout=Papp B→A at 120 min, 100 μM&system=BCRP (Homo sapiens, UniProt Q9UNQ0)&item= O=C(O)[C@H]1O[C@@H](Oc2cc3oc(-c4ccccc4)cc(=O)c3c(O)c2O)[C@H](O)[C@@H](O)[C@@H]1O [BG, Baicalein-7-O-β-D-glucuronide]
Response: 7.51

---

biological target: BCRP (Homo sapiens); construct: expressed in transfected cells; host or cells: MDCK II; assay: Transport of baicalin across MDCK II-BCRP cell monolayer (transwell); assay type: in vitro ADME; conditions: pH 7.4, MDCK II-BCRP, 100 μM BG alone, read-out: ER
Reported metric: efflux ratio at 120 min, 100 μM
One number for each entry.

Request: GET /values?readout=efflux ratio at 120 min, 100 μM&system=BCRP (Homo sapiens)&item= O=C(O)[C@H]1O[C@@H](Oc2cc3oc(-c4ccccc4)cc(=O)c3c(O)c2O)[C@H](O)[C@@H](O)[C@@H]1O [BG, Baicalein-7-O-β-D-glucuronide]
Response: 3.01

---

assay: Transport of baicalin across MDCK II-WT cell monolayer (transwell); type: in vitro ADME; conditions: dog, MDCK, pH 7.4, MDCK II-WT; 100 μM BG alone
Reported metric: Papp A→B at 120 min, 100 μM (×10⁻⁶ cm/s)
Answers are plain numbers, in ×10⁻⁶ cm/s.

Request: Look up Papp A→B at 120 min, 100 μM for this molecule: O=C(O)[C@H]1O[C@@H](Oc2cc3oc(-c4ccccc4)cc(=O)c3c(O)c2O)[C@H](O)[C@@H](O)[C@@H]1O [BG, Baicalein-7-O-β-D-glucuronide]
Response: 3.18

Entry source: paper PMC11206988
